From: the supplement of paper PMC7125110

B1: glmS ribozyme (parent)
chain: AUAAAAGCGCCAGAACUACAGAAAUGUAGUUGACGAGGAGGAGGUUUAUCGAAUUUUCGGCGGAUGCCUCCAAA

Variants of: B1
Assay: self-cleavage kobs at 2500 uM GlcN6P; higher = faster cleavage; RNA array
Conditions: with glucosamine-6-phosphate
This sample holds only a part of the variants without activity.
MEASUREMENT_LABEL: self-cleavage kobs at 2500 uM GlcN6P (s⁻¹)
Could you give me the number in s⁻¹? Just the number is fine.

Consider the following illustrative entries.
VARIANT_CODE	OBSERVED
U49G A53G A64G C67A	0.000369
A39G U65G	0.00553
U57C A64G	0.000106
C61A C67A	7.72e-05

Challenge: Given the entry C16G U49G , report its measured self-cleavage kobs at 2500 uM GlcN6P.
Response given: 5.02e-05
